Values of pKi reported for S1R (Rattus norvegicus) appear below.
Answers are plain numbers, as −log10 of the molar value.

Could you report pKi for every entry in the following list?
1. O=C(Cc1ccc(Cl)c(Cl)c1)N1CCC2(CCN(CCc3ccccc3)C2)C1 (centres unmarked) [15a]
2. CN1CCN(CCc2ccc(Cl)c(Cl)c2)CC1 [BD1063, reference compound]

Resp:
1: 8.12; 2: 7.85

* * *

# ASSAY_PROTOCOL: Human plasma stability
# Type: in vitro ADME
# ASSAY_CONTEXT: pH 7.4, 37 °C, read-out: plasma stability T1/2
MEASURED_METRIC: half-life

Req: Param item = N#Cc1ccc(N2CCC3(CCN(CCc4ccccc4)C3)C2)cc1 (stereo not shown) ; retrieve measured half-life.
Resp: > 24 h

* * *

# EXPERIMENTAL_SYSTEM: hERG (Homo sapiens, UniProt Q12809)
# Sequence (Q12809 whole entry): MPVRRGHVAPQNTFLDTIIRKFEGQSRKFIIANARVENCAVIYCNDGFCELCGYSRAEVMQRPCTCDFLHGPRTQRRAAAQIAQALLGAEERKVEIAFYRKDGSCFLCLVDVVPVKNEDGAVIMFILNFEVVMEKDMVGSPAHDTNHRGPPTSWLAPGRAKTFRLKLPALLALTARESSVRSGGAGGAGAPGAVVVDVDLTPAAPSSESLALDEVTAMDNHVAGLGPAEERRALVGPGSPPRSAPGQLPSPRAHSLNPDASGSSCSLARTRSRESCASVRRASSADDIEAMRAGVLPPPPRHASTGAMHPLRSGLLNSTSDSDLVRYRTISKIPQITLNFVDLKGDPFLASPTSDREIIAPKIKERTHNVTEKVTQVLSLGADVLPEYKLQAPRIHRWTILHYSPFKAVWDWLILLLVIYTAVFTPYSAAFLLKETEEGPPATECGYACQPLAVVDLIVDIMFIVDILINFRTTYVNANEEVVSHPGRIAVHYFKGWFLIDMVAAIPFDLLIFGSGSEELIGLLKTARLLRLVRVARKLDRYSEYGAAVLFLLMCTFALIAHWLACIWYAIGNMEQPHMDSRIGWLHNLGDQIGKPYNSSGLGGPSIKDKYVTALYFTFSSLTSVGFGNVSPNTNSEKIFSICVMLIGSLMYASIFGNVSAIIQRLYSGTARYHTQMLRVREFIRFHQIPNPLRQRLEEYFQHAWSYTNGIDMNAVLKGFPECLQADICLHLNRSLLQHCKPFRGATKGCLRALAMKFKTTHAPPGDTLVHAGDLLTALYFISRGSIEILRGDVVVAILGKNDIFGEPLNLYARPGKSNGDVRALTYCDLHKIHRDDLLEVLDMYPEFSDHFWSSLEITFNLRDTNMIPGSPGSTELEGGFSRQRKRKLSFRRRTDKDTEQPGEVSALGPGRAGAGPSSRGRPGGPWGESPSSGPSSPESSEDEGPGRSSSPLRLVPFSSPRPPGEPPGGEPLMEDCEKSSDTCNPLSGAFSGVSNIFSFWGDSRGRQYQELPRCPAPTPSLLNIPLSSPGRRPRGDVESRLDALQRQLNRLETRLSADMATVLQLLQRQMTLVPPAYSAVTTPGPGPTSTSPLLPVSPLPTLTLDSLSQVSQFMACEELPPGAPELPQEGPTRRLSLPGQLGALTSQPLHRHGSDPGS
# ASSAY_PROTOCOL: hERG activity (Qube APC electrophysiology, CHO-K1 cells expressing human ERG)
# Assay type: cell-based
# ASSAY_CONTEXT: CHO-K1 cells that express human ERG, six concentrations 10^-10 to 10^-5 M
MEASURED_METRIC: pIC50
One number for each entry, as −log10 of the molar value.

Req: Could you share what pIC50 was measured for N#Cc1ccc(N2CCC3(CCN(CCc4ccccc4)C3)C2)cc1 (stereo not shown) [9d] , tested on hERG (Homo sapiens, UniProt Q12809)?
Resp: 7.07

* * *

# ASSAY_PROTOCOL: Metabolic stability in mouse liver microsomes
# Assay type: in vitro ADME
# ASSAY_CONTEXT: 1 h incubation
MEASURED_METRIC: microsomal CLint at 1 h, 0.1 µM (µL/min/mg)
One number for each entry, in µL/min/mg.

Req: Param item = N#Cc1ccc(N2CCC3(CCN(CCc4ccccc4)C3)C2)cc1 (stereo not shown) ; retrieve measured microsomal CLint at 1 h, 0.1 µM.
Resp: 124

* * *

# System: human corneal epithelial cells (HCE)
# ASSAY_PROTOCOL: LDH cytotoxicity assay in HCE cells
# Assay type: cell-based
# ASSAY_CONTEXT: 100 μM, 20 h incubation
So I've got a bunch of compounds here, and I need their HCE cells cytotoxicity (LDH release) values.
Kindly format the answer as number then unit.

- c1ccc(CCN2CCC3(CCN(CCc4ccccc4)C3)C2)cc1 [14a]: 13%
- N#Cc1ccc(N2CCC3(CCN(CCc4ccccc4)C3)C2)cc1 (stereo not shown): 18%
- O=[N+]([O-])c1ccc(N2CCC3(CCN(CCc4ccccc4)C3)C2)cc1 (stereo not shown): 23%

Alright, here's another compound for you.
Req: Param item = c1ccc(CCN2CCC3(CCN(c4ccccc4)C3)C2)cc1 (stereo not shown) ; retrieve measured HCE cells cytotoxicity (LDH release).
Resp: 16%

* * *

# ASSAY_PROTOCOL: Metabolic stability in human liver microsomes
# Format: in vitro ADME
# ASSAY_CONTEXT: 1 h incubation
MEASURED_METRIC: microsomal CLint at 1 h, 0.1 µM (µL/min/mg)
Answers are plain numbers, in µL/min/mg.

Req: Param item = N#Cc1ccc(N2CCC3(CCN(CCc4ccccc4)C3)C2)cc1 (stereo not shown) [9d] ; retrieve measured microsomal CLint at 1 h, 0.1 µM.
Resp: 127

* * *

# Test system: human corneal epithelial cells (HCE)
# ASSAY_PROTOCOL: MTT cell viability assay in HCE cells
# ASSAY_CONTEXT: 100 μM, 20 h incubation
MEASURED_METRIC: HCE cells cell viability reduction (MTT)
Kindly format the answer as number then unit.

- c1ccc(CCN2CCC3(CCN(CCc4ccccc4)C3)C2)cc1 [14a]: 56%

Could you report HCE cells cell viability reduction (MTT) for every entry in the following list?
1. Cl.O=C(OCCN1CCOCC1)C1(c2ccccc2)CCCCC1 [PRE-084, reference compound]
2. N#Cc1ccc(N2CCC3(CCN(CCc4ccccc4)C3)C2)cc1 (stereo not shown)
3. c1ccc(CCN2CCC3(CCN(c4ccccc4)C3)C2)cc1 (stereo not shown)

Resp:
["58%", "28%", "50%"]

* * *

# ASSAY_PROTOCOL: Chemical stability in phosphate buffer pH 7.4
# Type: physicochemical
# ASSAY_CONTEXT: phosphate buffer pH 7.4, 37 °C; read-out: chemical stability T1/2
MEASURED_METRIC: half-life

Req: Param item = N#Cc1ccc(N2CCC3(CCN(CCc4ccccc4)C3)C2)cc1 (stereo not shown) ; retrieve measured half-life.
Resp: > 24 h
